TEST METHOD NOTES: Toxicity against non-adherent human PBMC
Format: cell-based
METRIC NAME: IC50

                              compound  reported_measurement
0    CCCCCCCCCCCCCCCc1nnc(-c2ccncc2)o1            15.8 µg/mL
1          NNC(=O)c1ccncc1 [ISONIAZID]            87.1 µg/mL
2  CCCCCCCCCCCCCCCCCc1nnc(-c2ccncc2)o1            45.4 µg/mL

----------
TEST METHOD NOTES: Toxicity against adherent human PBMC
Assay type: cell-based
METRIC NAME: IC50 (µg/mL)

>>> df
                              molecule  qualifier_symbol  reported_measurement
0  CCCCCCCCCCCCCCCCCc1nnc(-c2ccncc2)o1                 =                   312
1          NNC(=O)c1ccncc1 [ISONIAZID]                 >                   100
2    CCCCCCCCCCCCCCCc1nnc(-c2ccncc2)o1                 =                   125

----------
Test system: Mycobacterium tuberculosis
TEST METHOD NOTES: Antimycobacterial activity against Mycobacterium tuberculosis H37Rv
Assay type: functional
METRIC NAME: MIC (µM)

                         compound_structure  metric_name  reported_measurement
0         CCCCCCCCCCCCCCCc1nnc(-c2ccncc2)o1          MIC                  0.35
1  O=[N+]([O-])c1cc(-c2nnc(-c3ccncc3)o2)cc([N+](=O)[O-])c1          MIC                  25.5
2                     ClCc1nnc(-c2ccncc2)o1          MIC                    41
3                FC(F)(F)c1nnc(-c2ccncc2)o1          MIC                  37.2
4       CCCCCCCCCCCCCCCCCc1nnc(-c2ccncc2)o1          MIC                  0.65
5        CN(C)c1ccc(-c2nnc(-c3ccncc3)o2)cc1          MIC                  3.76

----------
A collection of molecules and their measured MIC
Test system: Mycobacterium tuberculosis
TEST METHOD NOTES: Antimycobacterial activity against Mycobacterium tuberculosis H37Rv
Type: functional

MOLECULE	MIC (µM)
O=[N+]([O-])c1ccccc1-c1nnc(-c2ccncc2)o1	7.46
O=[N+]([O-])c1ccc(-c2nnc(-c3ccncc3)o2)cc1	29.9
NNC(=O)c1ccncc1	0.44
c1ccc(-c2nnc(-c3ccncc3)o2)cc1	8.97
COc1cc(-c2nnc(-c3ccncc3)o2)cc(OC)c1OC	14.1
c1cc(-c2nnc(-c3ccncc3)o2)ccn1	8.93
CC[C@@H](CO)NCCN[C@@H](CC)CO	9.8
Cc1nnc(-c2ccncc2)o1	49.7
CN[C@@H]1[C@H](O[C@H]2[C@H](O[C@H]3[C@H](O)[C@@H](O)[C@H](N=C(N)N)[C@@H](O)[C@@H]3N=C(N)N)O[C@@H](C)[C@]2(O)C=O)O[C@@H](CO)[C@H](O)[C@H]1O (stereo in doubt)	0.86
CO[C@H]1/C=C/O[C@@]2(C)Oc3c(C)c(O)c4c(O)c(c(/C=N/N5CCN(C)CC5)c(O)c4c3C2=O)NC(=O)/C(C)=C\C=C\[C@H](C)[C@H](O)[C@@H](C)[C@@H](O)[C@@H](C)[C@H](OC(C)=O)[C@@H]1C	0.07
